For each of the compounds below, state its pKi.
Biological target: human delta subtype 2 opioid receptor (Homo sapiens, UniProt P41143)
Sequence (P41143 whole entry): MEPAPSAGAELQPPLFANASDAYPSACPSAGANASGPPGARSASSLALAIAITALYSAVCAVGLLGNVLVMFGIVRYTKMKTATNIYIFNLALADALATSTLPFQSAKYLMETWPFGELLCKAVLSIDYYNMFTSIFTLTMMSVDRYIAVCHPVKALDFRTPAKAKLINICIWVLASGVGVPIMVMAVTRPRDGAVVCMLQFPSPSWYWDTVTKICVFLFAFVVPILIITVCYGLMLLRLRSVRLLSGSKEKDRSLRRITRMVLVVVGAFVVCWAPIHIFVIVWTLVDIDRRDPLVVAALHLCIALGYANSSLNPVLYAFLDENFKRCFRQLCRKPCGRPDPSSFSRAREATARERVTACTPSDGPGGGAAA
Test: Human Delta Opioid Receptor Binding Assay (CHO membranes, 3H-Naltrindole)
Details: read-out: hKi δ
Give bare numbers, as −log10 of the molar value.

Completed entries (count: 6):
>>> observed_measurement("Cc1cc(O)cc(C)c1C[C@H](N)C(=O)N(Cc1nc(-c2ccccc2F)c(C)[nH]1)C(C)C [Cpd 117]")
6.93
>>> observed_measurement("Cc1cc(O)cc(C)c1C[C@H](N)C(=O)N(C(C)C)[C@H](CO)c1nc(-c2ccccc2)c[nH]1 [Cpd 63]")
6.33
>>> observed_measurement("Cc1cc(O)cc(C)c1C[C@H](N)C(=O)N(C)[C@H](C)c1nc(-c2ccccc2)c[nH]1 [Cpd 206]")
6.56
>>> observed_measurement("Cc1cc(O)cc(C)c1C[C@H](N)C(=O)N(Cc1ccc(N(C)C)cc1)[C@@H](C)c1nc(-c2ccccc2)cn1C [Cpd 77]")
7.87
>>> observed_measurement("Cc1cc(C(N)=O)cc(C)c1C[C@H](N)C(=O)N(C(C)C)[C@@H](C)c1nc(-c2ccccc2)c[nH]1 [Cpd 143]")
7.16
>>> observed_measurement("CNc1ccc(CN(C(=O)C(N)Cc2c(C)cc(O)cc2C)C(C)c2nc(-c3ccccc3)c[nH]2)cc1 (stereo not drawn) [Cpd 78]")
7.54

Please give pKi, item by item, for the list that follows.
1. Cc1cc(O)cc(C)c1C[C@H](N)C(=O)N(Cc1ccccc1)[C@H](c1nc(-c2ccccc2)c[nH]1)C(C)C [Cpd 106]
2. COc1ccc(CN(C(=O)[C@@H](N)Cc2c(C)cc(O)cc2C)[C@@H](C)c2nc(-c3ccccc3)c[nH]2)cc1OC [Cpd 102]

Given back:
1: 6.55; 2: 8.28

Please give pKi, item by item, for the list that follows.
1. Cc1cc(O)cc(C)c1C[C@H](N)C(=O)N(Cc1nc(-c2cccc(C(=O)O)c2)c(C)[nH]1)C(C)C [Cpd 133]
2. Cc1cc(O)cc(C)c1C[C@H](N)C(=O)N(C(C)C)[C@@H](Cc1ccccc1)c1nc(-c2ccccc2)c[nH]1 [Cpd 159]

Given back:
1. 6.97
2. 6.40

Please give pKi, item by item, for the list that follows.
1. COC(=O)c1cccc(CN(C(=O)[C@@H](N)Cc2c(C)cc(O)cc2C)[C@@H](C)c2nc(-c3ccccc3)c[nH]2)c1 [Cpd 52]
2. Cc1cc(O)cc(C)c1C[C@H](N)C(=O)N(Cc1nc(Br)c(C)[nH]1)C(C)C [Cpd 65]
3. Cc1cc(O)cc(C)c1C[C@H](N)C(=O)N(Cc1ccncc1)[C@@H](C)c1nc(-c2ccccc2)c[nH]1 [Cpd 57]
4. COc1cccc(-c2nc(CN(C(=O)[C@@H](N)Cc3c(C)cc(O)cc3C)C(C)C)[nH]c2C)c1 [Cpd 142]
5. Cc1cc(O)cc(C)c1C[C@H](N)C(=O)N(Cc1nc(-c2ccccc2-c2ccccc2)c(C)[nH]1)C(C)C [Cpd 145]

Given back:
[7.18, 6.29, 8.66, 6.34, 6.57]

---

For each of the molecules below, state its MOR GTP binding assay_v2 (% I).
Molecular target: mu opioid receptor (CHO-hMOR cell membranes) (Homo sapiens)
Construct: purchased Receptor Biology, Inc. (Baltimore, Md.); host or cells: CHO cells (recombinant expression)
Sequence (P35372 whole entry): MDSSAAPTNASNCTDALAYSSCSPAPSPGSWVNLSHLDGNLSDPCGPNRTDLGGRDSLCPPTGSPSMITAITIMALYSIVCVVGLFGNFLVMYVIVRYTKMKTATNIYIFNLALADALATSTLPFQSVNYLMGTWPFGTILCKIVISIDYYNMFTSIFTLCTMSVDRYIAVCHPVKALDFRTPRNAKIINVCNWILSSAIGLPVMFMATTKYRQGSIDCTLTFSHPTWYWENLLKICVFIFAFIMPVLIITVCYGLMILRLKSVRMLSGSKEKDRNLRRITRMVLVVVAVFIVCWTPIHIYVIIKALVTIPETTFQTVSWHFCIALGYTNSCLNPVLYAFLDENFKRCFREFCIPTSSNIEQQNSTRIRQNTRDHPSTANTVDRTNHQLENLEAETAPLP
Assay: Mu Opioid Receptor Functional Assay: [35S]GTPγS Binding in CHO-hMOR Cell Membranes, Versions 1 and 2
Format: biochemical
Details: version 2, % inhibition of agonist-stimulated GTPγS binding
One number for each entry, in %.

>>> observed_measurement("COC(=O)c1cccc(CN(C(=O)[C@@H](N)Cc2c(C)cc(C(N)=O)cc2C)[C@@H](C)c2nc(-c3ccccc3)c[nH]2)n1 [Cpd 313]")
29.00

Please give MOR GTP binding assay_v2 (% I), item by item, for the list that follows.
1. COc1ccc(CN(C(=O)[C@@H](N)Cc2c(C)cc(C(N)=O)cc2C)[C@@H](C)c2nc(-c3ccccc3)c[nH]2)cc1C(=O)O [Cpd 18]
2. COC(=O)N[C@@H](Cc1c(C)cc(C(N)=O)cc1C)C(=O)N(Cc1ccc(OC)c(C(=O)OC)c1)[C@@H](C)c1nc(-c2ccccc2)c[nH]1 [Cpd 310]

Given back:
1: 7.54; 2: 51.00
